Numbers sourced from patent US20050234026A1.

assayedSystem: recombinant purified human NOS1 (Homo sapiens, UniProt P29475)
Sequence (P29475 whole entry): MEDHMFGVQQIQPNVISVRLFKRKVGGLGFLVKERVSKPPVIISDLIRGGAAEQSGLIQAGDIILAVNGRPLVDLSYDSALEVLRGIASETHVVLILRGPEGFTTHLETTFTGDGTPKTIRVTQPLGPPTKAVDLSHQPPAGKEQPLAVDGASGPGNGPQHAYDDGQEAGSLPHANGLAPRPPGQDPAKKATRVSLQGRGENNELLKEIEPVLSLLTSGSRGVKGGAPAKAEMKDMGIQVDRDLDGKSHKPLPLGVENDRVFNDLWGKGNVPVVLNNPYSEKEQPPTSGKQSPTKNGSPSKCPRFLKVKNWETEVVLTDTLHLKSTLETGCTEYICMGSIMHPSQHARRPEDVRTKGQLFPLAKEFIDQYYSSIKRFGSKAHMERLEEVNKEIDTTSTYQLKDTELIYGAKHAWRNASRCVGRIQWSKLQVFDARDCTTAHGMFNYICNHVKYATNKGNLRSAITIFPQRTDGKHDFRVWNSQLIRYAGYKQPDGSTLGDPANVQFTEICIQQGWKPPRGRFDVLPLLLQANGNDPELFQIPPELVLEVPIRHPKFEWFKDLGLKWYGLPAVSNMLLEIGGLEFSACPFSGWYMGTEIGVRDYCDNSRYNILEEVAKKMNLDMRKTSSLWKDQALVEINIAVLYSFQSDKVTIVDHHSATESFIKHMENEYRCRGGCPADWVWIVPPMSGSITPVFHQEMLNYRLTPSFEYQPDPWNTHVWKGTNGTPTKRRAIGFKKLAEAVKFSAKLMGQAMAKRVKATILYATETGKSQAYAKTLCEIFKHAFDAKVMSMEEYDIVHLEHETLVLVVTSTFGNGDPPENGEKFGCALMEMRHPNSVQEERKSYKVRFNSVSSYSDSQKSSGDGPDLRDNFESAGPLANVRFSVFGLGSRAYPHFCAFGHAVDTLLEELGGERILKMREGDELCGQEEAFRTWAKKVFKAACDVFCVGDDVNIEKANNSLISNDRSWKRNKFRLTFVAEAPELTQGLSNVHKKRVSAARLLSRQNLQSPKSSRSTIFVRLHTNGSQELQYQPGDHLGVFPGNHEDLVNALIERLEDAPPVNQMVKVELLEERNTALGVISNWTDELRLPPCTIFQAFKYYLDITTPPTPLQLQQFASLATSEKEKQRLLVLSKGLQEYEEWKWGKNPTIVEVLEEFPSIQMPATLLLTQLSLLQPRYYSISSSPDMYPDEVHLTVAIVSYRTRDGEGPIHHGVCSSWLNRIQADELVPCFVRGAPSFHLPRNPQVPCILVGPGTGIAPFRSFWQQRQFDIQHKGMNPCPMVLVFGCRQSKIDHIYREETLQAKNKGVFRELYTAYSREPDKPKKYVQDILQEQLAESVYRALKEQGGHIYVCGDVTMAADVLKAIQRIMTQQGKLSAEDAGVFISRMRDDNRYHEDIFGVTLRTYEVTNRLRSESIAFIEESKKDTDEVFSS
protocolSummary: Kd for enzyme inhibition, pure human NOS1
endpointName: pKd
// field semantics: pKd = negative decimal log of concentration (mol/L)

Record request: pKd value, item C=CCC(=N)NCCC[C@H](N)C(=O)O
7.00

###

Let's look at some compounds and their measured ED50 for CLL.
System: CLL cells
protocolSummary: Cytotoxicity of NOS inhibitors and NO quenchers/scavengers for freshly-isolated CLL cells in vitro
Type: cell-based, human
statedConditions: Table 2, CLL cytotoxicity
Unit µM implied. Number only.

Cl.Cl.N=C(Nc1ccc(CCNCc2cccc(Cl)c2)cc1)c1cccs1: 11

Query compound follows.
I would be grateful if you could share the reported ED50 for CLL for C=CCC(=N)NCCC[C@H](N)C(=O)O .
747
